# measured.on: membrane PD-L1 (Homo sapiens, UniProt Q9NZQ7)
# Construct: Alexa Fluor® 647 Rabbit monoclonal Anti-PD-L1 (ab215251); endogenous in cells; host or cells: HT-29, MCF-7, A-549 (A17: MCF-7 only; A14: IFN-gamma-stimulated cancer cells co-cultured with Jurkat T cells)
# Sequence (Q9NZQ7 19-290): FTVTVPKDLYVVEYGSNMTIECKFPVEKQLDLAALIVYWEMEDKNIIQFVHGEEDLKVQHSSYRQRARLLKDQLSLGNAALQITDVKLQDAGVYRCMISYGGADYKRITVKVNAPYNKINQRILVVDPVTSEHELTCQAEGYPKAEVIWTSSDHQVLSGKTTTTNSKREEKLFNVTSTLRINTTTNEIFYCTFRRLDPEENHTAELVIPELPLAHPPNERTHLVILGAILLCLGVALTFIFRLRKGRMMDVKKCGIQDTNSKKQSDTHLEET
# experiment.notes: Membrane PD-L1 relative quantification by flow cytometry in cancer cells co-cultured with Jurkat T cells
# Assay type: cell-based
# recorded.conditions: Jurkat, 24 h, A549 co-cultured with Jurkat T cells, relative to non-treated co-cultures, read-out: % PDL1 (membrane)
property.name: remaining activity at 100 µM (%)
State just the number; it will be interpreted in %.

Recorded remaining activity at 100 µM of COc1ccc(C(OCCc2ccc(CCn3cc(-c4ccccc4OC)nn3)cc2)(c2ccccc2)c2ccc(OC)cc2)cc1 [Compound 13] , please.
83

What do you get for Cc1c(COc2ccc(CN3CCCCC3C(=O)O)cc2Br)cccc1-c1ccccc1 (stereo not shown) [BMS-8, reference compound] ?
103

// next record OCCc1ccc(CCn2cc(-c3cccc(Br)c3)nn2)cc1 [Compound 6]
75

Moving on to the next molecule: COc1ccc(C(OCCc2ccc(CCn3cc(-c4ccc(Br)cc4)nn3)cc2)(c2ccccc2)c2ccc(OC)cc2)cc1 [Compound 3]
77

###

# measured.on: membrane PD-L1 (Homo sapiens, UniProt Q9NZQ7)
# Construct: Alexa Fluor® 647 Rabbit monoclonal Anti-PD-L1 (ab215251); endogenous in cells; host or cells: HT-29, MCF-7, A-549 (A17: MCF-7 only; A14: IFN-gamma-stimulated cancer cells co-cultured with Jurkat T cells)
# experiment.notes: Membrane PD-L1 relative quantification by flow cytometry in cancer cells co-cultured with Jurkat T cells
# Format: cell-based
# recorded.conditions: Jurkat, HT-29 co-cultured with Jurkat T cells, 24 h, read-out: membrane PD-L1 inhibition rate
Please provide measured inhibition at 100 µM for the entries that follow.

Give the measured inhibition at 100 µM of OCCc1ccc(CCn2cc(-c3ccc(Br)cc3)nn2)cc1 .
40 to 50%

Next record, please: COc1ccc(C(OCCc2ccc(CCn3cc(-c4ccc(Br)cc4)nn3)cc2)(c2ccccc2)c2ccc(OC)cc2)cc1
~20%

Queued: COc1ccccc1-c1cn(CCc2ccc(CCO)cc2)nn1
40 to 50%

Query OCCc1ccc(CCn2cc(-c3cccc(Br)c3)nn2)cc1 next
40 to 50%

Also check OCCc1ccc(CCn2cc(-c3ccccc3Br)nn2)cc1
40 to 50%

// same read-out, input: COc1ccc(C(OCCc2ccc(CCn3cc(-c4ccccc4OC)nn3)cc2)(c2ccccc2)c2ccc(OC)cc2)cc1
40 to 50%

Then COc1ccc(-c2cn(CCc3ccc(CCOC(c4ccccc4)(c4ccc(OC)cc4)c4ccc(OC)cc4)cc3)nn2)cc1 ?
40 to 50%

###

# measured.on: PD-L1 (Homo sapiens, UniProt Q9NZQ7)
# Sequence (Q9NZQ7 19-290): as above
# experiment.notes: Total PD-L1 relative quantification by flow cytometry in cancer cell lines
# Assay type: cell-based
# Set-up: Alexa Fluor® 647 Rabbit monoclonal Anti-PD-L1 (ab215251); endogenous in cells; host or cells: HT-29
# recorded.conditions: A549; A-549, 100 µM, 24 h, total PD-L1 relative to negative control (DMSO)
property.name: remaining activity at 100 µM

Hello, I am looking for reported remaining activity at 100 µM with PD-L1 (Homo sapiens, UniProt Q9NZQ7) for OCCc1ccc(CCn2cc(-c3ccccc3Br)nn2)cc1 . Could you help?
44%

Now try COc1ccc(-c2cn(CCc3ccc(CCO)cc3)nn2)cc1 .
62%

What do we get for COc1ccc(C(OCCc2ccc(CCn3cc(-c4ccc(Br)cc4)nn3)cc2)(c2ccccc2)c2ccc(OC)cc2)cc1 ?
58%

Same question for COc1ccc(C(OCCc2ccc(CCn3cc(-c4cccc(OC)c4)nn3)cc2)(c2ccccc2)c2ccc(OC)cc2)cc1 please.
104%

Next compound: COc1ccc(C(OCCc2ccc(CCn3cc(-c4cccc(Br)c4)nn3)cc2)(c2ccccc2)c2ccc(OC)cc2)cc1
70%

What would you report for COc1ccc(C(OCCc2ccc(CCn3cc(-c4ccccc4OC)nn3)cc2)(c2ccccc2)c2ccc(OC)cc2)cc1 ?
120%

Again, but for COc1ccc(C(OCCc2ccc(CCn3cc(-c4ccccc4)nn3)cc2)(c2ccccc2)c2ccc(OC)cc2)cc1
63%

Item: COc1cccc(-c2cn(CCc3ccc(CCO)cc3)nn2)c1
67%

Check OCCc1ccc(CCn2cc(-c3ccc(Br)cc3)nn2)cc1 too.
55%

And for COc1ccc(C(OCCc2ccc(CCn3cc(-c4ccccc4Br)nn3)cc2)(c2ccccc2)c2ccc(OC)cc2)cc1 ?
86%

And Cc1c(COc2ccc(CN3CCCCC3C(=O)O)cc2Br)cccc1-c1ccccc1 (stereo not drawn) [BMS-8, reference compound] ?
70%

Quick one: COc1ccc(-c2cn(CCc3ccc(CCOC(c4ccccc4)(c4ccc(OC)cc4)c4ccc(OC)cc4)cc3)nn2)cc1
92%

Another compound to check: OCCc1ccc(CCn2cc(-c3cccc(Br)c3)nn2)cc1
62%

Can you handle COc1ccccc1-c1cn(CCc2ccc(CCO)cc2)nn1 next?
54%

Cool, now OCCc1ccc(CCn2cc(-c3ccccc3)nn2)cc1
76%
